# credit: ChEMBL document CHEMBL1125617

Target protein (sequence): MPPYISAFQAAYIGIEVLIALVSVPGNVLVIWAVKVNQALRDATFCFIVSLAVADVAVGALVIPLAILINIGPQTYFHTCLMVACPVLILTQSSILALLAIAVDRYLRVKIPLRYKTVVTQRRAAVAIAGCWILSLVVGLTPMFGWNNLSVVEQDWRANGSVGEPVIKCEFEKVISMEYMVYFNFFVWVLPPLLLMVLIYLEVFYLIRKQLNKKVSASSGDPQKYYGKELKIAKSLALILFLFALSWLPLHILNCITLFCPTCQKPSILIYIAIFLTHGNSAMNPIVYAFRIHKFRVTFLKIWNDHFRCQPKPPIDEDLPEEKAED
pKi: −log10 of the molar value.
readout_label: pKi

1) OC[C@H]1O[C@@H](n2cnc3c(N[C@@H]4CCCc5ccccc54)ncnc32)[C@H](O)[C@@H]1O
7.64
2) COc1cc2c(cc1OC)C(Nc1ncnc3c1ncn3[C@@H]1O[C@H](CO)[C@@H](O)[C@H]1O)CC2 (stereo not given in full)
6.94
3) CCCOc1ccc2c(c1)CCC2Nc1ncnc2c1ncn2[C@@H]1O[C@H](CO)[C@@H](O)[C@H]1O (stereo not given in full)
7.55

1. COc1ccc2c(c1)CCC2Nc1ncnc2c1ncn2[C@@H]1O[C@H](CO)[C@@H](O)[C@H]1O (single isomer, unassigned; isomer b)
2. OC[C@H]1O[C@@H](n2cnc3c(NC4COc5ccccc5C4)ncnc32)[C@H](O)[C@@H]1O (stereo not given in full)
Task: Could you tell me which of 1 and 2 has the lower pKi reading? I would appreciate it if you answered with the label of your choice.
Result: 1

----------
# tested_system: UniProt:P25099
# Sequence (P25099 whole entry): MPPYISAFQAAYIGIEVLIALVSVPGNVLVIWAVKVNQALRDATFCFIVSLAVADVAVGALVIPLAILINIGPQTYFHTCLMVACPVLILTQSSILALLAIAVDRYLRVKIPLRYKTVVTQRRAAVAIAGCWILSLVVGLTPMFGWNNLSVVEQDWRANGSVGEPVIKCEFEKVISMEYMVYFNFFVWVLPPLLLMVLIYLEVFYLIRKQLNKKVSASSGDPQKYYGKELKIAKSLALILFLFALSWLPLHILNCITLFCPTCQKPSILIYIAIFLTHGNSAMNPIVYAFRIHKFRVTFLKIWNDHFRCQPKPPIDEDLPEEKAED
readout_label: Ki (nM)

1. OC[C@H]1O[C@@H](n2cnc3c(N[C@@H]4CCc5ccccc54)ncnc32)[C@H](O)[C@@H]1O
22.2
2. OC[C@H]1O[C@@H](n2cnc3c(NC4Cc5ccccc5C4)ncnc32)[C@H](O)[C@@H]1O
23.8

A. OC[C@H]1OC(n2cnc3c(NCC4=CCc5ccccc54)ncnc32)[C@H](O)[C@@H]1O (some centres undefined)
B. OC[C@H]1O[C@@H](n2cnc3c(NC4CCCc5c(OCc6ccccc6)cccc54)ncnc32)[C@H](O)[C@@H]1O (some centres undefined)
Task: // pick larger Ki from pair: A vs B I would appreciate it if you answered with the label of your choice.
Result: B
(B: 138 nM, A: 32.4 nM)

----------
# tested_system: Adenosine receptor A1 (Rattus norvegicus)
pKi: −log10 of the molar value.
readout_label: pKi

// below: answered compounds
1) OC[C@H]1O[C@@H](n2cnc3c(NCC4(O)CCc5ccccc54)ncnc32)[C@H](O)[C@@H]1O (stereo partly specified)
7.17
2) OC[C@H]1OC(n2cnc3c(NC4CCc5ccccc5C4)ncnc32)[C@H](O)[C@@H]1O (stereo partly specified)
8.08
3) OC[C@H]1O[C@@H](n2cnc3c(NC4CCSc5ccccc54)ncnc32)[C@H](O)[C@@H]1O (stereo partly specified)
7.50
4) OC[C@H]1O[C@@H](n2cnc3c(NCC4CCc5ccccc54)ncnc32)[C@H](O)[C@@H]1O (stereo partly specified)
8.28
5) OC[C@H]1O[C@@H](n2cnc3c(NC4CCc5ccccc54)ncnc32)[C@H](O)[C@@H]1O (stereo partly specified)
7.34
6) CCCCOc1ccc2c(c1)CCC2Nc1ncnc2c1ncn2[C@@H]1O[C@H](CO)[C@@H](O)[C@H]1O (stereo in doubt; 15)
7.33
7) OC[C@H]1O[C@@H](n2cnc3c(N[C@H]4CCCc5ccccc54)ncnc32)[C@H](O)[C@@H]1O
6.52
8) CCOc1ccc2c(c1)CCC2Nc1ncnc2c1ncn2[C@@H]1O[C@H](CO)[C@@H](O)[C@H]1O (stereo partly specified)
7.48

I. CC(C)COc1ccc2c(c1)CCC2Nc1ncnc2c1ncn2[C@@H]1O[C@H](CO)[C@@H](O)[C@H]1O (stereo partly specified)
II. OC[C@H]1O[C@@H](n2cnc3c(NC4CCCCc5ccccc54)ncnc32)[C@H](O)[C@@H]1O (stereo partly specified)
III. COc1ccc2c(c1)C(Nc1ncnc3c1ncn3[C@@H]1O[C@H](CO)[C@@H](O)[C@H]1O)CCC2 (single isomer, unassigned; isomer A)
IV. CCCCCOc1ccc2c(c1)CCC2Nc1ncnc2c1ncn2[C@@H]1O[C@H](CO)[C@@H](O)[C@H]1O (stereo partly specified)
Task: Hi! Can you put these in order of pKi, lowest number first? Return value: ordered labels per request.
Result: III, IV, I, II
(III: 5.59, IV: 6.98, I: 7.55, II: 7.75)

a. OC[C@H]1O[C@@H](n2cnc3c(NC4CCCc5c(O)cccc54)ncnc32)[C@H](O)[C@@H]1O (stereo partly specified)
b. O=[N+]([O-])c1ccc2c(c1)CCC2Nc1ncnc2c1ncn2[C@@H]1O[C@H](CO)[C@@H](O)[C@H]1O (stereo partly specified)
Task: Could you tell me which of a and b has the lower pKi reading? I would appreciate it if you answered with the label of your choice.
Result: b

----------
# tested_system: Adenosine receptors; A1 & A2 (Rattus norvegicus) (UniProt P29276+P25099+P30543)
# method: Ratio of Ki values of A1 adenosine and A2 adenosine receptor
# Format: protein assay
readout_label: Ratio

1) OC[C@H]1O[C@@H](n2cnc3c(NC4CCc5cc6c(cc54)OCO6)ncnc32)[C@H](O)[C@@H]1O (some centres not stated)
89.9
2) OC[C@H]1O[C@@H](n2cnc3c(NCC4(O)CCc5ccccc54)ncnc32)[C@H](O)[C@@H]1O (some centres not stated)
9.8
3) COc1ccc2c(c1)C(Nc1ncnc3c1ncn3[C@@H]1O[C@H](CO)[C@@H](O)[C@H]1O)CCC2 (stereo in doubt; 31)
27

1. COc1cc2c(cc1OC)C(Nc1ncnc3c1ncn3[C@@H]1O[C@H](CO)[C@@H](O)[C@H]1O)CC2 (some centres not stated)
2. CCOc1ccc2c(c1)C(Nc1ncnc3c1ncn3[C@@H]1O[C@H](CO)[C@@H](O)[C@H]1O)CCC2 (some centres not stated)
3. CCCCOc1ccc2c(c1)CCC2Nc1ncnc2c1ncn2[C@@H]1O[C@H](CO)[C@@H](O)[C@H]1O (single isomer, unassigned; isomer A)
Task: Hi! Can you put these in order of Ratio, lowest number first? Return value: ordered labels per request.
Result: 1, 2, 3
(1: 26.2, 2: 86.4, 3: 2370)

----------
# tested_system: Adenosine receptors; A1 & A2 (Rattus norvegicus) (UniProt P29276+P25099+P30543)
# method: Ratio of Ki values of A1 adenosine and A2 adenosine receptor
# Type: protein assay
readout_label: Ratio

// below: answered compounds
1) OC[C@H]1O[C@@H](n2cnc3c(NCC4CCCCc5ccccc54)ncnc32)[C@H](O)[C@@H]1O (some centres not stated)
7.3
2) OC[C@H]1O[C@@H](n2cnc3c(N[C@@H]4CCCc5ccccc54)ncnc32)[C@H](O)[C@@H]1O
7.1
3) COc1cc2c(c(OC)c1OC)C(Nc1ncnc3c1ncn3[C@@H]1O[C@H](CO)[C@@H](O)[C@H]1O)CC2 (some centres not stated)
32.6

1. COc1cccc2c1CCCC2Nc1ncnc2c1ncn2[C@@H]1O[C@H](CO)[C@@H](O)[C@H]1O (some centres not stated)
2. COc1ccc2c(c1)CCC2Nc1ncnc2c1ncn2[C@@H]1O[C@H](CO)[C@@H](O)[C@H]1O (single isomer, unassigned; isomer A)
Task: // pick larger Ratio from pair: 1 vs 2 I would appreciate it if you answered with the label of your choice.
Result: 2

A. COc1ccc2c(c1)CCC2Nc1ncnc2c1ncn2[C@@H]1O[C@H](CO)[C@@H](O)[C@H]1O (single isomer, unassigned; isomer b)
B. OC[C@H]1O[C@@H](n2cnc3c(NCC4=CCCc5ccccc54)ncnc32)[C@H](O)[C@@H]1O
Task: Could you tell me which of A and B has the lower Ratio reading? I would appreciate it if you answered with the label of your choice.
Result: B

----------
# tested_system: Adenosine A2 receptor (Rattus norvegicus, UniProt P29276+P30543)
# method: Binding affinity towards adenosine A2 receptor
# Type: protein assay
readout_label: Ki (µM)

1) COc1ccc2c(c1)CCC2Nc1ncnc2c1ncn2[C@@H]1O[C@H](CO)[C@@H](O)[C@H]1O (single isomer, unassigned; isomer b)
1.45
2) CC(C)COc1ccc2c(c1)CCC2Nc1ncnc2c1ncn2[C@@H]1O[C@H](CO)[C@@H](O)[C@H]1O (some centres not stated)
9.038
3) COc1cc2c(cc1OC)C(Nc1ncnc3c1ncn3[C@@H]1O[C@H](CO)[C@@H](O)[C@H]1O)CC2 (some centres not stated)
3.002
4) OC[C@H]1O[C@@H](n2cnc3c(NC4CCc5cc(O)ccc54)ncnc32)[C@H](O)[C@@H]1O (some centres not stated)
0.769
5) OC[C@H]1O[C@@H](n2cnc3c(NC4CCCc5ccc(O)cc54)ncnc32)[C@H](O)[C@@H]1O (some centres not stated)
0.16

P. COc1ccc2c(c1)CCC2Nc1ncnc2c1ncn2[C@@H]1O[C@H](CO)[C@@H](O)[C@H]1O (single isomer, unassigned; isomer A)
Q. CC(C)Oc1ccc2c(c1)C(Nc1ncnc3c1ncn3[C@@H]1O[C@H](CO)[C@@H](O)[C@H]1O)CCC2 (some centres not stated)
Task: Could you tell me which of P and Q has the lower Ki reading? I would appreciate it if you answered with the label of your choice.
Result: P
(P: 28.26 µM, Q: 43.44 µM)
